Catalogue of compounds with associated cell viability
- Test system: HCT116
- protocol-summary: cell viability (CellTiter-Glo) relative to plate median (fraction of plate median); higher = more viable cells
- recorded-conditions: 5 µM; treatment time 24 h; reporter: TCF4/Wnt
recorded-metric: cell viability

INSERT INTO results (compound, recorded_metric, test_value) VALUES
  ('CC(NC(C)(C)C)C(=O)c1cccc(Cl)c1 (stereo not given)', 'cell viability', 1.02),
  ('CC([C@H](O)c1ccccc1)N(C)C (stereo not given in full)', 'cell viability', 1.01),
  ('CC(=O)NC1CCSC1=O (stereo not given)', 'cell viability', 1.01),
  ('Cc1cc(O)ccc1Cl', 'cell viability', 0.994),
  ('CC1=C2C(=CO[C@H](C)[C@H]2C)C(O)=C(C(=O)O)C1=O', 'cell viability', 1);
